In this section we review reported T/C values for a set of compounds.
System: P388 leukemia ip, CD2F1 mice, survival T/C
measurement_notes: NCI In Vivo Anticancer Drug Screen. Data for tumor model P388 Leukemia (intraperitoneal) in CD2F1 (CDF1) mice
condition_info: endpoint: median survival time; dose: 50.0 mg/kg/injection; schedule: Q01DX009 (ip); vehicle: saline; higher = longer survival
Procedure: The antitumor activity of compounds was measured in mice bearing transplantable tumors. Survival or tumor size were measured and the results are expressed as the measurement made in the treated group (T) divided by the measurement made in the vehicle treated control group (C). The tumor model used in this assay is P388 Leukemia (intraperitoneal) in CD2F1 (CDF1) mice
Toxic doses and inconclusive results are not listed.
measurement_type: T/C

[[record]]
compound = "OC(CN1CCOCC1)c1ccccn1 (configuration not stated)"
reported_value = "95 % of control"

[[record]]
compound = "COP(=O)(Cc1ccccc1O)OC"
reported_value = "97 % of control"

[[record]]
compound = "Nc1ccccc1CN1C(=O)CCC1=O"
reported_value = "105 % of control"

[[record]]
compound = "CN(C)/C(N)=N\\c1ncccn1"
reported_value = "91 % of control"

[[record]]
compound = "CC(=O)NC(Cc1ccsc1)C(=O)O (configuration not stated)"
reported_value = "108 % of control"

[[record]]
compound = "CC(=O)Oc1cc2c(=O)oc3c(OC(C)=O)c(OC(C)=O)c(OC(C)=O)c4c(=O)oc(c1OC(C)=O)c2c34"
reported_value = "86 % of control"

[[record]]
compound = "NC(Cc1cnc[nH]1)C(=O)O (configuration not stated)"
reported_value = "110 % of control"

